- MEASURED_TARGET: T1, hBCMA (human BCMA) (Homo sapiens, UniProt Q02223)
- T1 sequence (Q02223 1-184): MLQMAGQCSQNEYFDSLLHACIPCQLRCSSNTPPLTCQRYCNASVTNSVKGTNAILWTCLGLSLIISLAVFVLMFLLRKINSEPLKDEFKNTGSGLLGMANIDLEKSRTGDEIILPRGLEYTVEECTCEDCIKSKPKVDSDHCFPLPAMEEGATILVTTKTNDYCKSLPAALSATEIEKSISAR
- METHOD: Kinetics and affinity of hBCMA/human IgG interactions by SPR (Bio-Rad Proteon XPR36)
- Assay type: binding
- SETUP_CONDITIONS: human BCMA, 37° C.
- Experimental: All experiments were performed on a Bio-Rad Proteon XPR36 surface Plasmon resonance biosensor (Bio-Rad, Hercules, Calif.). […] The analysis temperature for the hBCMA binding analysis was 37° C. or 25° C. in a running buffer of HBS-T+, supplemented with 1 mg/mL BSA. […] Immediately after the 50 nM hBCMA injection, dissociation was monitored for 2 hours. […]
Hi there, I'd appreciate the recorded ka Human for every entry that follows.
Numbers only, in M⁻¹ s⁻¹.

Consider the following illustrative entries.
{"MOLECULE": "COMBO_Rd4_0.6 nM_C20: anti-BCMA antibody (antibody, V domains shown) VH: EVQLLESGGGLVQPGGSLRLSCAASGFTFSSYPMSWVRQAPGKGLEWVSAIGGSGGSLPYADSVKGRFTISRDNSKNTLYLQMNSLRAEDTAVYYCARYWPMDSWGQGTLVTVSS VL: EIVLTQSPGTLSLSPGERATLSCRASQSVSYLYLAWYQQKPGQAPRLLMYDASIRATGIPDRFSGSGSGTDFTLTISRLEPEDFAVYYCQQYMEWPLTFGQGTKVEIK", "ka Human, M⁻¹ s⁻¹": "7.65e+06"}
{"MOLECULE": "P5C1_VHVL: anti-BCMA antibody (antibody, V domains shown) VH: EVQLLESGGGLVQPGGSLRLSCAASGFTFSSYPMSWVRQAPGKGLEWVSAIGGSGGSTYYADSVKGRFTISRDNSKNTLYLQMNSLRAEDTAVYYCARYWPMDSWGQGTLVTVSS VL: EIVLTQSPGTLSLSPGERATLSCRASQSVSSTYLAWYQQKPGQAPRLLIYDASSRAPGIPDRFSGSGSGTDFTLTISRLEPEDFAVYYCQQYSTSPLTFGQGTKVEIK", "ka Human, M⁻¹ s⁻¹": "1.16e+07"}

**Query** Supply reported ka Human belonging to this molecule: A02_Rd4_6 nM_C05: anti-BCMA antibody (antibody, V domains shown) VH: EVQLLESGGGLVQPGGSLRLSCAASGFTFSSYAMNWVRQAPGKGLEWVSAIFASGGSTYYADSVKGRFTISRDNSKNTLYLQMNSLRAEDTAVYYCARYWPMTPWGQGTLVTVSS VL: EIVLTQSPGTLSLSPGERATLSCRASQSVSSSYLAWYQQKPGQAPRLLMYDASIRATGIPDRFSGSGSGTDFTLTISRLEPEDFAVYYCQQYQRWPLTFGQGTKVEIK
**Result** 3.1e+06
